Documented abundance fitness across a set of variants
B1: CD2-associated protein, residues 271 to 331; numbered along this chain, Q9Y5K6 (parent)
chain: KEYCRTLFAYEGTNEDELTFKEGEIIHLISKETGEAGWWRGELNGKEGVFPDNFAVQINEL

Variants of: B1
PROTOCOL DESCRIPTION: abundance fitness (aPCA) (normalised: wild type 0, dead -1); higher = more abundant; growth selection in yeast, the domain comes from the species named
APPLIED CONDITIONS: Homo sapiens
MEASURED METRIC: abundance fitness

1. KEYCRTLFAYEGTNEDELTFKEGEIIHLISKETGEAGWWRGELNGKEGVFPDNFAVQITEL [N59T]; -0.147
2. KEYCRTLFAYEGTNEDELTFKEGEIGHLISKETGEAGWWRGELNGKEGVFPDNFAVQINEL [I26G]; -0.856
3. KEYCRTLFAYPGTNEDELTFKEGEIIHLISKETGEAGWWRGELNGKEGVFPDNFAVQINEL [E11P]; -0.745
4. KEGCRTLFAYEGTNEDELTFKEGEIIHLISKETGEAGWWRGELNGKEGVFPDNFAVQINEL [Y3G]; -0.611
5. TEYCRTLFAYEGTNEDELTFKEGEIIHLISKETGEAGWWRGELNGKEGVFPDNFAVQINEL [K1T]; -0.394
6. KEYCRTLFAYEGTNEDELTFKEGEIIFLISKETGEAGWWRGELNGKEGVFPDNFAVQINEL [H27F]; -0.26
7. KEYCRTLFAYEGTNEDEVTFKEGEIIHLISKETGEAGWWRGELNGKEGVFPDNFAVQINEL [L18V]; -0.524
8. KEYCRTLFAYEGTNEDELTFKETEIIHLISKETGEAGWWRGELNGKEGVFPDNFAVQINEL [G23T]; -0.424
9. KEYCRTLFAYEGTNEQELTFKEGEIIHLISKETGEAGWWRGELNGKEGVFPDNFAVQINEL [D16Q]; -0.105
10. KEYCRTLFAYEGTNEDELTFKEGECIHLISKETGEAGWWRGELNGKEGVFPDNFAVQINEL [I25C]; -0.485
11. KEYCRTLFAYEGTNEDELTFKEGEIIHLISKETGEAGWWRGELNGKEGVFPKNFAVQINEL [D52K]; -0.02
12. KEYCRTLFAYEGTNEDELTFKEGEIIHLISKEQGEAGWWRGELNGKEGVFPDNFAVQINEL [T33Q]; -0.451
13. KEYCRTLFAYEGTNEDELTFHEGEIIHLISKETGEAGWWRGELNGKEGVFPDNFAVQINEL [K21H]; -0.107
14. KEYCRTLFAYEGTNEDELTFKEGEIIHLISKTTGEAGWWRGELNGKEGVFPDNFAVQINEL [E32T]; -0.111
15. KEYCRTLFAYEGTNEDELTFKEGEIIHLISKETGEAGWWRGELNGKEGVFPDNEAVQINEL [F54E]; -0.632
16. KEYCRTLFAYEGTNEDELTFKEGEIIHLISKETGEAGWWRVELNGKEGVFPDNFAVQINEL [G41V]; -1.06
17. KEYCRTLFAYEGTNEDELTFKEGQIIHLISKETGEAGWWRGELNGKEGVFPDNFAVQINEL [E24Q]; -0.14
18. KEYCRTLFAYEGTNEDELFFKEGEIIHLISKETGEAGWWRGELNGKEGVFPDNFAVQINEL [T19F]; -0.592
19. KEYCRTLFAYEGTNEDELTFKEGEIIHLISKETGEAGWWRGELNGKEGVFPDNFAVIINEL [Q57I]; -0.006
20. KEYCRTLFAYEGINEDELTFKEGEIIHLISKETGEAGWWRGELNGKEGVFPDNFAVQINEL [T13I]; -0.183
21. KEYCRTLFAYEGTNEDELTFKEGEIIHLISKELGEAGWWRGELNGKEGVFPDNFAVQINEL [T33L]; -0.349
22. KEYCRTLFAYEGTNEDELTFLEGEIIHLISKETGEAGWWRGELNGKEGVFPDNFAVQINEL [K21L]; -0.203
23. KEYCRTLFAWEGTNEDELTFKEGEIIHLISKETGEAGWWRGELNGKEGVFPDNFAVQINEL [Y10W]; -0.209
24. KEYCRTLFAYEGTNEDELTFKEGEIIHLISKETGEAGWWRGELNMKEGVFPDNFAVQINEL [G45M]; -0.695
25. KEYCRCLFAYEGTNEDELTFKEGEIIHLISKETGEAGWWRGELNGKEGVFPDNFAVQINEL [T6C]; -0.614
26. KEYCRTLFAYEGTNEDELTFKEGEIIHLCSKETGEAGWWRGELNGKEGVFPDNFAVQINEL [I29C]; -0.561
27. KEYCSTLFAYEGTNEDELTFKEGEIIHLISKETGEAGWWRGELNGKEGVFPDNFAVQINEL [R5S]; -0.49
28. KEYCRTLFAYEGTNEDELTFKEGEIIHVISKETGEAGWWRGELNGKEGVFPDNFAVQINEL [L28V]; -0.005
29. KEYCRTLFAYEGTNEDELTFKEGEIIHLISKDTGEAGWWRGELNGKEGVFPDNFAVQINEL [E32D]; -0.003
30. KEYCRTLFAYTGTNEDELTFKEGEIIHLISKETGEAGWWRGELNGKEGVFPDNFAVQINEL [E11T]; -0.216
31. KEYCRTLFAYEGTNEDELTFKEGEIIHLPSKETGEAGWWRGELNGKEGVFPDNFAVQINEL [I29P]; -0.524
32. KEYCRTLFMYEGTNEDELTFKEGEIIHLISKETGEAGWWRGELNGKEGVFPDNFAVQINEL [A9M]; -0.291
33. KEYCRTLFAYEGTNRDELTFKEGEIIHLISKETGEAGWWRGELNGKEGVFPDNFAVQINEL [E15R]; -0.12
34. KEYCRTLFAYEGTNEDELTAKEGEIIHLISKETGEAGWWRGELNGKEGVFPDNFAVQINEL [F20A]; -0.808
35. KEYCRTLFAYEGTNEDELTFKEGEISHLISKETGEAGWWRGELNGKEGVFPDNFAVQINEL [I26S]; -0.76
36. KEYCRTLFAYEGTNEDELTFKEGEIIHLISKETGEAGWWRGELNGKVGVFPDNFAVQINEL [E47V]; -0.029
37. KEYCRTLFAYEGTNEDELTFKEGEIIHLISKETGEAGWWRGELNGKEPVFPDNFAVQINEL [G48P]; -0.932
38. KEYCRQLFAYEGTNEDELTFKEGEIIHLISKETGEAGWWRGELNGKEGVFPDNFAVQINEL [T6Q]; -0.68
39. KDYCRTLFAYEGTNEDELTFKEGEIIHLISKETGEAGWWRGELNGKEGVFPDNFAVQINEL [E2D]; 0.039
40. KEYCRTEFAYEGTNEDELTFKEGEIIHLISKETGEAGWWRGELNGKEGVFPDNFAVQINEL [L7E]; -0.457
41. KEYCRTLFAYEGTNEDELTFKEGEIIHLISKETGEAGWWRGELNGKEGVFPDNVAVQINEL [F54V]; 0.011
42. KEYCRTLFAYEGTNEDELTFKEGEWIHLISKETGEAGWWRGELNGKEGVFPDNFAVQINEL [I25W]; -0.75
43. KEYCRTLFAYEGTNEDELTFKEGEILHLISKETGEAGWWRGELNGKEGVFPDNFAVQINEL [I26L]; -0.214
44. KEYCRTLFAYEGTNEDELTFKEGEIIHLISKETGEAGWWRGELNGKEGVFPDNFAVLINEL [Q57L]; -0.046
45. KEYCRTLFAYEGTNEDELTFKEGEIIHLISKETGEVGWWRGELNGKEGVFPDNFAVQINEL [A36V]; -0.03
46. KEYCRTLFAYEGTNEDELTFKEGEIAHLISKETGEAGWWRGELNGKEGVFPDNFAVQINEL [I26A]; -0.82
